The reported measurements were obtained from the supplement of paper PMC11061612.

System: TE-4 (Esophageal Squamous Cell Carcinoma);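 also: after 72 h of two-drug dosing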
Experiment: Bliss excess, mean over the matrix (fraction); higher = more synergy
reported_property: Bliss excess
Respond numerically, and do not add a unit to the figure.

Reference set, count: 3
| compound | Bliss excess |
| --- | --- |
| C[C@@H]1COCCN1c1cc(C2([S@](C)(=N)=O)CC2)nc(-c2ccnc3[nH]ccc23)n1 [AZD6738] + O=C(c1cc(Cc2n[nH]c(=O)c3ccccc23)ccc1F)N1CCN(C(=O)C2CC2)CC1 [Olaparib] (first compound max 10 µM, 7x7, partner max 10 µM) | 0.0082 |
| COc1nnc2ccc(N3CCC(c4ccc(OCCN5CCN(C)C(=O)[C@H]5C)cc4)CC3)nn12 [AZD5153] + CCN(CCO)CCCOc1ccc2c(Nc3cc(CC(=O)Nc4cccc(F)c4)[nH]n3)ncnc2c1 [AZD2811] (first compound max 1 µM, 7x7, partner max 1 µM) | -0.0116 |
| NC1(C(=O)N[C@@H](CCO)c2ccc(Cl)cc2)CCN(c2ncnc3[nH]ccc23)CC1 [Capivasertib] + COc1nnc2ccc(N3CCC(c4ccc(OCCN5CCN(C)C(=O)[C@H]5C)cc4)CC3)nn12 [AZD5153] (first compound max 10 µM, 7x7, partner max 1 µM) | 0.0684 |

Now look at this entry.
Fill blank: measured Bliss excess of the compound CS(=O)(=O)CCNCc1ccc(-c2ccc3ncnc(Nc4ccc(OCc5cccc(F)c5)c(Cl)c4)c3c2)o1 [Lapatinib] + C[C@@H](Oc1cc(-c2cnn(C3CCNCC3)c2)cnc1N)c1c(Cl)ccc(F)c1Cl [Crizotinib] (first compound max 10 µM, 7x7, partner max 10 µM) is ____.
0.0198
